Catalogue of pIC50 readings, one per entry.
# System under test: rat TRPV1 (Rattus norvegicus (Rat))
# Sequence (O35433 whole entry): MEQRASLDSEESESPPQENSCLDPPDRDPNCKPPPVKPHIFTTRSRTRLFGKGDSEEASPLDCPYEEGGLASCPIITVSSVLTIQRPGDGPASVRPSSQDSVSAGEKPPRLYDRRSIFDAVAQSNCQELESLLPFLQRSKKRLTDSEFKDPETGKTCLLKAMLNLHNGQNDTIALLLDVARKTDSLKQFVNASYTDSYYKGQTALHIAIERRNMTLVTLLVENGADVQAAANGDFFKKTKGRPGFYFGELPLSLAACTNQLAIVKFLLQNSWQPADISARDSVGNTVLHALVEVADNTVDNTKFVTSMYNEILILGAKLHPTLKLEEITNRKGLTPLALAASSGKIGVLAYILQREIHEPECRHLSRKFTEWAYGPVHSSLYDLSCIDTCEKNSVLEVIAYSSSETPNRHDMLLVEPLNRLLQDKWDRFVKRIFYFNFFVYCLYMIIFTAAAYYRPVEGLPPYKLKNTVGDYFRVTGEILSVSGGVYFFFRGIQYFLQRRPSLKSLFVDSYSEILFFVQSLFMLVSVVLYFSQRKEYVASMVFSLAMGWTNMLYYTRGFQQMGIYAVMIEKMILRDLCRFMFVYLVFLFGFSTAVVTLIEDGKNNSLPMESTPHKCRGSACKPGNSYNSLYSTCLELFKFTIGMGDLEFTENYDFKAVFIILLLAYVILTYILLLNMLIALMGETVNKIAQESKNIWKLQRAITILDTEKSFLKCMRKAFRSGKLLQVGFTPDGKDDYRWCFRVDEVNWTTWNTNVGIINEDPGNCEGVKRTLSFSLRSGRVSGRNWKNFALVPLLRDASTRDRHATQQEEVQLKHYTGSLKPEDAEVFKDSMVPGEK
# Test context: read-out: Rat IC50
Structures can show the parent of a compound that is named as a salt.
Scale explanation: pIC50 corresponds to minus log10 of a concentration expressed in moles per litre.

The following compounds have reported results that may help.
CC(C)c1nc2c(c(Nc3cnc4ccccc4c3)n1)CCN(c1ncccc1C(F)(F)F)CC2 [Example 21]; 5.96
Cc1cc(C(F)(F)F)ccc1Nc1nc(Sc2ccccc2)nc2c1CCN(c1ncccc1C(F)(F)F)CC2 [Example 351]; 6.12
CC(Oc1nc2c(c(Nc3ccc4c(c3)N(C)CCC4)n1)CCN(c1ncccc1C(F)(F)F)CC2)C1CCCCC1 (centres unmarked) [Example 316]; 5.93
CC(C)c1nc2c(c(Nc3ccc(C(F)(F)F)cc3)n1)CCN(c1ncccc1[N+](=O)[O-])CC2 [Example 88]; 6.02

Now for the compound whose pIC50 we want.
# return pIC50 of CN(C)c1ccc(Nc2nc(N(C)C)nc3c2CCN(c2ncccc2C(F)(F)F)CC3)cc1 [Example 79B, trifluoroacetic acid salt] (system: rat TRPV1 (Rattus norvegicus (Rat)))
5.89
